Cited source for all entries: the supplement of paper PMC10065799

Target: EPHB1 (UniProt P54762)
Sequence (P54762 whole entry, looked up): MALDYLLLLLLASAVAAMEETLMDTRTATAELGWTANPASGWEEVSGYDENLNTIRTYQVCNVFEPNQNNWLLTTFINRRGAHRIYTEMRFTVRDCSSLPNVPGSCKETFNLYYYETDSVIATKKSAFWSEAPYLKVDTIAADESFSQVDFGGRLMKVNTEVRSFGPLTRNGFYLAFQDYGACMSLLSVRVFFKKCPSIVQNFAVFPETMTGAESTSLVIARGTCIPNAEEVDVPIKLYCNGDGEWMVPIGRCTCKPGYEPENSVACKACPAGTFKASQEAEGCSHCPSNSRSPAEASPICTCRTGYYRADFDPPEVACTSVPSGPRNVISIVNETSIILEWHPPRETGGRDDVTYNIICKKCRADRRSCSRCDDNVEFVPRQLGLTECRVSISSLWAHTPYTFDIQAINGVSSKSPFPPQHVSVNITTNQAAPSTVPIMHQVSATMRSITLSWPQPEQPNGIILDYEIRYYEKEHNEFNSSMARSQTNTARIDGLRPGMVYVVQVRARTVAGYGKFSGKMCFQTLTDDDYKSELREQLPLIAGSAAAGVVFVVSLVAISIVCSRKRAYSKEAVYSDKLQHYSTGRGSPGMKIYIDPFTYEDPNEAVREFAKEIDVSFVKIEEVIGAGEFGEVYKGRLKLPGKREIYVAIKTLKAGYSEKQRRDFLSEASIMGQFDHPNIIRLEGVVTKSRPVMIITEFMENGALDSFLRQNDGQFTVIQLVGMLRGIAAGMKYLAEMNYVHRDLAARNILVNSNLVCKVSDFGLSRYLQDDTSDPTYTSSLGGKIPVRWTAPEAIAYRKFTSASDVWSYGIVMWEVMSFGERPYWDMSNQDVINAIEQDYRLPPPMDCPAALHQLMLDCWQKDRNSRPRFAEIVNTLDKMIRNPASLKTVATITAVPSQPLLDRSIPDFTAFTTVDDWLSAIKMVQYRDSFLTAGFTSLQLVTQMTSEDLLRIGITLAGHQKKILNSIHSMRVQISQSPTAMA
Assay: phosphorylation enrichment, bacterial display (enrichment ratio); higher = better substrate or ligand; peptides without Tyr show the background;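 further: 11-residue human phosphosite peptides and single-mutation variants displayed on the E. coli surface, counted by deep sequencing, each peptide's frequency after selection divided by its frequency in the unselected input library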;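 further: frequency after pTyr selection over input frequency; kinase dosed for 20-30% of maximal phosphorylation in three min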
quantity: phosphorylation enrichment
Answer with a bare number; do not write a unit.

Use these answered entries as a reference point.
INSERT INTO assay_data (entry_sequence, assay_target, quantity, test_result) VALUES
  ('VPVDGYISGLL [PAK6_Y81_M76V]', 'EPHB1 (UniProt P54762)', 'phosphorylation enrichment', 0.75),
  ('LESETYRRLLD [KRT12_Y429_I426S]', 'EPHB1 (UniProt P54762)', 'phosphorylation enrichment', 0.75),
  ('ALDRPYTSKHS [NANS_Y71_E68D]', 'EPHB1 (UniProt P54762)', 'phosphorylation enrichment', 0.364);

Enquiry: # phosphorylation enrichment lookup, item PGIRMYQVQYN [LRFN1_Y454]
Return: 0.93
